# experimental.target: UniProt:P61964
# method.notes: Surface Plasmon Resonance (SPR) assay
# Assay type: binding
# Set-up: Full length WDR5 with an N-terminal His tag and C-terminal AviTag; His tag (N); made in house; host or cells: E. coli
# experimental.setup: read-out: SPR Kd
Where a name gives a salt, the structure may show the parent alone.
Exercise: state measured Kd for each of the compounds provided.
The number alone won't do; follow it with the unit.

Field Kd (entry C[C@@H]1CN(c2ncc(-c3c(F)cc(N4CCN(C)[C@@H](C)C4)c(NC(=O)c4ccc(F)cc4C(F)(F)F)c3F)cn2)C[C@@H](C)O1 [Example 167, Formic Acid Salt] ) reads 0.66 nM

Field Kd (entry C[C@@H]1CN(c2cc(F)c(C3=CCCN(C(=O)C(C)(C)C)C3)c(F)c2NC(=O)c2c[nH]c(=O)cc2C(F)(F)F)C[C@H](C)N1C ) reads 5.31 nM

Field Kd (entry C[C@H]1CN(c2cc(F)c(C3=CCCN(c4ccnc(C#N)n4)C3)c(F)c2NC(=O)c2c[nH]c(=O)cc2C(F)F)CCN1C ) reads 1.99 nM

Field Kd (entry C[C@H]1CN(c2cc(F)c(-c3ccc(N4CCOCC4)nc3)c(F)c2NC(=O)c2ccc(F)cc2C(F)(F)F)CCN1C ) reads 1.71 nM

Field Kd (entry C[C@H]1CN(c2ncc(-c3c(F)cc(N4CCN(C)[C@@H](C)C4)c(NC(=O)c4ccc(F)cc4C(F)F)c3F)cn2)C[C@H](C)O1 ) reads 0.22 nM

Field Kd (entry C[C@@H]1CN(c2ccc(-c3c(F)cc(N4CCN(C)[C@@H](C)C4)c(NC(=O)c4c[nH]c(=O)cc4C(F)(F)F)c3F)cn2)C[C@H](C)O1 ) reads 0.83 nM

----------
# System: MV4-11 cells
# method.notes: Cell proliferation assay (ATPlite)
# Assay type: cell-based
# experimental.setup: Homo sapiens, 120 h; MV4-11 cells, five days; read-out: GI MV411 EC50
Exercise: state measured log10 EC50 for each of the compounds provided.
Parameter value (number): base-10 log of EC50 in nM.

Field log10 EC50 (entry CC(C)[C@@H]1CN(c2nccc(-c3c(F)cc(N4CCN(C)[C@@H](C)C4)c(NC(=O)c4c[nH]c(=O)cc4C(F)(F)F)c3F)n2)CCO1 [Example 123] ) reads 1.79

Field log10 EC50 (entry C[C@@H]1CN(c2cc(F)c(-c3cnc(N4CC5CCC(C4)O5)nc3)c(F)c2NC(=O)c2c[nH]c(=O)cc2C(F)F)C[C@H](C)N1C [Example 156] ) reads 1.91

Field log10 EC50 (entry C[C@H]1CN(c2cc(F)c(C3=CCCN(c4ccnc(C#N)n4)C3)c(F)c2NC(=O)c2c[nH]c(=O)cc2C(F)F)CCN1C [Example 113] ) reads 1.93

Field log10 EC50 (entry C[C@@H]1CN(c2cc(F)c(-c3ccc(F)c(C(N)=O)c3)c(F)c2NC(=O)c2c[nH]c(=O)cc2C(F)(F)F)C[C@H](C)N1C [Example 28] ) reads 3.46

Field log10 EC50 (entry COc1cnc(N2CCC=C(c3c(F)cc(N4CCN(C)[C@@H](C)C4)c(NC(=O)c4c[nH]c(=O)cc4C(F)(F)F)c3F)C2)nc1 [Example 52] ) reads 2.45

Field log10 EC50 (entry C[C@H]1CN(c2cc(F)c(C3=CCN(c4ncc(C#N)s4)CC3)c(F)c2NC(=O)c2c[nH]c(=O)cc2C(F)F)CCN1C [Example 97] ) reads 2.14
